Biological target: Glutamate NMDA receptor; GRIN1/GRIN2A (Homo sapiens, UniProt Q05586+Q12879)
Test: Positive allosteric modulation of GluN1/GluN2A NMDAR (unknown origin) expressed in Dox-inducible cells at 125 uM measured every 5 mins by BD calcium indicator dye based-fluorescence analysis in presence of glutamate/glycine
Type: cell-based
observationType: %max (%)

{"compoundStructure": "CCN(Cc1cc(=O)n2c(C3CCC3)c(C)sc2n1)c1ccc(F)cc1", "observationType": "%max", "measurement": 122}
{"compoundStructure": "O=c1cc(Cn2nc(C(F)(F)F)cc2Cl)nc2sc(C(F)(F)F)c([C@@H]3C[C@H]3CO)n12", "observationType": "%max", "measurement": 144}
{"compoundStructure": "CCN(Cc1cc(=O)n2c(C(=O)NC)c(C)sc2n1)c1ccc(F)cc1", "observationType": "%max", "measurement": 185}
{"compoundStructure": "CCNC(=O)c1c(C)sc2nc(CN(CC)c3ccc(F)cn3)cc(=O)n12", "observationType": "%max", "measurement": 170}
{"compoundStructure": "CCN(Cc1cc(=O)n2c(C(C)=O)c(C)sc2n1)c1ccc(F)cc1", "observationType": "%max", "measurement": 173}
{"compoundStructure": "CCN(Cc1cc(=O)n2c(CCCO)c(C)sc2n1)c1ccc(F)cc1", "observationType": "%max", "measurement": 169}
{"compoundStructure": "CCN(Cc1cc(=O)n2c(C(C)(C)O)c(C)sc2n1)c1ccc(F)cc1", "observationType": "%max", "measurement": 157}
{"compoundStructure": "CCNC(=O)c1c(C)sc2nc(Cc3cc(C#N)ccc3Cl)cc(=O)n12", "observationType": "%max", "measurement": 94}
{"compoundStructure": "CCCCc1nn2c(=O)cc(CN(CC)c3ccccc3)nc2s1", "observationType": "%max", "measurement": 91}
{"compoundStructure": "CCN(Cc1cc(=O)n2nc(C)sc2n1)c1ccc(F)cc1", "observationType": "%max", "measurement": 150}

---

Target: Glutamate NMDA receptor; GRIN1/GRIN2A (Homo sapiens, UniProt Q05586+Q12879)
Assay: Positive allosteric modulation of GluN1/GluN2A NMDAR (unknown origin) expressed in Dox-inducible cells measured every 5 mins by BD calcium indicator dye based-fluorescence analysis in presence of glutamate/glycine
pEC50: −log10 of the molar value.
observationType: pEC50

{"compound": "CCNC(=O)c1c(C)sc2nc(COc3ccc(F)cc3)cc(=O)n12", "targetOfAssay": "Glutamate NMDA receptor; GRIN1/GRIN2A (Homo sapiens, UniProt Q05586+Q12879)", "measurement": 5.07}
{"compound": "CCNC(=O)c1c(C)sc2nc(Cn3nc(C(F)(F)F)cc3OCC)cc(=O)n12", "targetOfAssay": "Glutamate NMDA receptor; GRIN1/GRIN2A (Homo sapiens, UniProt Q05586+Q12879)", "measurement": 6.38}
{"compound": "CCNC(=O)c1c(C)sc2nc(Cc3cccc(C#N)c3F)cc(=O)n12", "targetOfAssay": "Glutamate NMDA receptor; GRIN1/GRIN2A (Homo sapiens, UniProt Q05586+Q12879)", "measurement": 5.04}
{"compound": "CCNC(=O)c1c(C)sc2nc(Cn3nc(C(F)(F)F)cc3C3CC3)cc(=O)n12", "targetOfAssay": "Glutamate NMDA receptor; GRIN1/GRIN2A (Homo sapiens, UniProt Q05586+Q12879)", "measurement": 6.27}
{"compound": "CCNC(=O)c1c(C)sc2nc(C(C)c3cccc(C(F)(F)F)c3F)cc(=O)n12 (racemic)", "targetOfAssay": "Glutamate NMDA receptor; GRIN1/GRIN2A (Homo sapiens, UniProt Q05586+Q12879)", "measurement": 5.51}
